Items are presented alongside their recorded pIC50.
Target: human TRPA1 (Homo sapiens)
Construct: expressed in transfected cells
Assay: Cell-based functional intracellular calcium ([Ca2+]i) assay, Fluo-4/Fluo-8, FlexStation, challenge with reference TRPA1 agonist (FFA, AITC or 4-HNE)
Conditions: HEK293 cells expressing human TRPA1; IC50 class after addition of reference TRPA1 agonist (FFA, AITC or 4-HNE); read-out: human TRPA1-HEK Activity
pIC50: −log10 of the molar value.

For the compound O=C(c1cc(-c2cccnc2)n(-c2ccc(C(F)(F)F)c(F)c2)n1)N1CCC2(CC1)C(=O)NCN2c1ccc(OC(F)F)cc1 [Compound 188] , what pIC50 is on record?
5.30 to 9.00

Now this one: O=C(c1cc(-c2cncc(F)c2)n(-c2ccc(C(F)(F)F)c(F)c2)n1)N1CCC(n2c(=O)[nH]c3ccc(F)c(F)c32)CC1 [Compound 319]
5.30 to 9.00

# repeat for O=C(c1cc(-c2ccncc2)n(-c2ccc(C(F)(F)F)c(F)c2)n1)N1CC(=O)N2CCc3ccccc3C2C1 (stereo not drawn) [Compound 104]
< 4.60

Quick one: O=C(c1cc(-c2cncc(F)c2)n(-c2ccc(C(F)(F)F)c(F)c2)n1)N1CCC2(CC1)C(=O)NCN2c1ccc(F)cc1 [Compound 318]
5.30 to 9.00

Record: O=C1OC2(CCN(C(=O)c3cc(-c4ccncc4)n(-c4ccc(C(F)(F)F)c(F)c4)n3)CC2)c2ccc(Cl)cc21 [Compound 103]
< 4.60

What do you have for O=C(c1cc(-c2ccncc2)n(-c2cc(F)c(F)c(F)c2)n1)N1CCC(n2c(=O)[nH]c3ccccc32)CC1 [Compound 141] ?
4.60 to 5.30

###

Target: human TRPA1 (Homo sapiens, UniProt O75762)
Construct: expressed in transfected cells
Sequence (O75762 whole entry): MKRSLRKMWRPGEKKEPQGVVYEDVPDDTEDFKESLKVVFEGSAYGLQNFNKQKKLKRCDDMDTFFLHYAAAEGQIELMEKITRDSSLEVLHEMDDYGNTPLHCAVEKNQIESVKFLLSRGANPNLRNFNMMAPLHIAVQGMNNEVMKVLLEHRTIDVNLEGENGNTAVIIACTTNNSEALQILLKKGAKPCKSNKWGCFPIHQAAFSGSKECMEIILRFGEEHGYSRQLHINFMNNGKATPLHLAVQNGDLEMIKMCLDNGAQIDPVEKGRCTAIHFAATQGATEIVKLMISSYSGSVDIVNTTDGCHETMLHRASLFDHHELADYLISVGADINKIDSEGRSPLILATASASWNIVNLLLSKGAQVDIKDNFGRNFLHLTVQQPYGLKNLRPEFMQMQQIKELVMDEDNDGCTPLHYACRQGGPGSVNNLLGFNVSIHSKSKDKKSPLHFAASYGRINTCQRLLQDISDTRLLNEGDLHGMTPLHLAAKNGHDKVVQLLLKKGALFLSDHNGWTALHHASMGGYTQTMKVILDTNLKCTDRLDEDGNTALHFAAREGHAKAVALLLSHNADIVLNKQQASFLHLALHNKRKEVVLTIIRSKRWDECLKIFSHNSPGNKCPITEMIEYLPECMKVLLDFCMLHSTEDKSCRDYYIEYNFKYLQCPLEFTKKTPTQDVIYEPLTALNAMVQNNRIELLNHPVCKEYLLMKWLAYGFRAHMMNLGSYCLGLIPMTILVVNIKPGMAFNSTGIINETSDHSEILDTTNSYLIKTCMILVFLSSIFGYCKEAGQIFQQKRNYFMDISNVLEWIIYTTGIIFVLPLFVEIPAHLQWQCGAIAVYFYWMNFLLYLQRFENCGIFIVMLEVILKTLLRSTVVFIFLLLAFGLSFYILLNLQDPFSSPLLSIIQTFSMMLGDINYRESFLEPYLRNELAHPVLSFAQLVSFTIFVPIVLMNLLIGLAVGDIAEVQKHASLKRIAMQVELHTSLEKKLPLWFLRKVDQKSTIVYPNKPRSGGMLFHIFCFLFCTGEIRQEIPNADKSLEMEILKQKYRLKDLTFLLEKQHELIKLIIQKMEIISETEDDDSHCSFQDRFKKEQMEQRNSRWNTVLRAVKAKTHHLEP
Assay: Cell-based functional intracellular calcium ([Ca2+]i) assay, Fluo-4/Fluo-8, FlexStation, challenge with reference TRPA1 agonist (FFA, AITC or 4-HNE)
measureName: IC50

Recorded results for 6 molecules are shown here.
[[record]]
molecule = "O=C(c1cc(-c2ccncc2)n(-c2ccc(C(F)(F)F)cc2)n1)N1CCC(N2C(=O)Cc3ccccc32)CC1"
recordedvalue = "> 25 µM"

[[record]]
molecule = "O=C(c1cc(-c2cccnc2)n(-c2ccc(C(F)(F)F)c(F)c2)n1)N1CCC2(CC1)C(=O)NC(=O)N2c1ccc(F)cc1"
recordedvalue = "5 to 25 µM"

[[record]]
molecule = "O=C(c1cc(-c2ccncc2)n(-c2ccc(C(F)(F)F)c(F)c2)n1)N1CCC2(CC1)OCCO2"
recordedvalue = "5 to 25 µM"

[[record]]
molecule = "O=C(c1cc(-c2ccncc2)n(-c2cccc(C(F)(F)F)c2)n1)N1CCC2(CC1)OCCO2"
recordedvalue = "> 25 µM"

[[record]]
molecule = "O=C(c1cc(-c2ccncc2)n(-c2ccc(F)c(F)c2)n1)N1CCC(N2C(=O)Cc3ccccc32)CC1"
recordedvalue = "> 25 µM"

[[record]]
molecule = "CC1COC2(CCN(C(=O)c3cc(-c4ccncc4)n(-c4ccc(C(F)(F)F)cc4)n3)CC2)O1 (stereo not drawn)"
recordedvalue = "> 25 µM"


Lab request: please report IC50 under test system human TRPA1 (Homo sapiens, UniProt O75762) for O=C(c1cc(-c2ccncc2)n(-c2cc(F)c(F)c(F)c2)n1)N1CCC2(CC1)OCCO2
> 25 µM

Another molecule to check: O=C(c1cc(-c2ccncc2)n(-c2ccccc2)n1)N1CCC2(CC1)OCCO2
> 25 µM

Please give the result for O=C(c1cc(-c2ccncc2)n(-c2ccc(F)c(F)c2)n1)N1CCC2(CC1)OCCO2 too.
> 25 µM

Check O=C(c1cc(-c2cccnc2)n(-c2ccc(C(F)(F)F)c(F)c2)n1)N1CCN2C(=O)OC3(CC3)[C@@H]2C1 too.
0.001 to 5 µM

Would you mind doing N#Cc1ccc(-n2nc(C(=O)N3C4CCC3CC3(C4)C(=O)NCN3c3ccc(F)cc3)cc2-c2cccnc2)cc1F (stereo not drawn) as well?
0.001 to 5 µM
